Origin of the recorded values: ChEMBL document CHEMBL1126657

# protocol-details: Percent inhibition of 2,2'-azobis(2-amidinopropane)dihydrochloride induced decay of (R)-phycoerythrin fluorescence emission
# Format: functional
# Design: concentration or dose not given beside the values
# particulars: dose or concentration not given here
We begin with a simple list: items and their reported inhibition.
Please respond with the number in % and leave the unit unwritten.

Recorded inhibition, per entry:
- compound-structure: "CCOc1cc(CN(C)C)cc(OCC)c1O.Cl"
  data-value: 71.6
- compound-structure: "CC(C)Oc1cc(CN(C)C)cc(OC(C)C)c1O.Cl"
  data-value: 69.3
- compound-structure: "CCNCc1cc(OC)c(O)c(OC)c1.Cl"
  data-value: 71.8

Now for the molecule whose inhibition we want.
Enquiry: For the molecule CC(C)Oc1cc(CN2CCN(CCO)CC2)cc(OC(C)C)c1O.Cl.Cl , what inhibition is on record?
Return: 71.6
